Reference source for all entries: the supplement of paper PMC3545927

target: furin, P09958; assay: furin cleavage Z-score vs untreated control; higher = more cleavage, active = 3.5 or more, inactive = 1 or less, 8 variable residues between constant flanks; settings: 15 min;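 also: purified furin at 1:10 enzyme:substrate in 50 mM HEPES pH 7.5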
Sequence (P09958 whole entry): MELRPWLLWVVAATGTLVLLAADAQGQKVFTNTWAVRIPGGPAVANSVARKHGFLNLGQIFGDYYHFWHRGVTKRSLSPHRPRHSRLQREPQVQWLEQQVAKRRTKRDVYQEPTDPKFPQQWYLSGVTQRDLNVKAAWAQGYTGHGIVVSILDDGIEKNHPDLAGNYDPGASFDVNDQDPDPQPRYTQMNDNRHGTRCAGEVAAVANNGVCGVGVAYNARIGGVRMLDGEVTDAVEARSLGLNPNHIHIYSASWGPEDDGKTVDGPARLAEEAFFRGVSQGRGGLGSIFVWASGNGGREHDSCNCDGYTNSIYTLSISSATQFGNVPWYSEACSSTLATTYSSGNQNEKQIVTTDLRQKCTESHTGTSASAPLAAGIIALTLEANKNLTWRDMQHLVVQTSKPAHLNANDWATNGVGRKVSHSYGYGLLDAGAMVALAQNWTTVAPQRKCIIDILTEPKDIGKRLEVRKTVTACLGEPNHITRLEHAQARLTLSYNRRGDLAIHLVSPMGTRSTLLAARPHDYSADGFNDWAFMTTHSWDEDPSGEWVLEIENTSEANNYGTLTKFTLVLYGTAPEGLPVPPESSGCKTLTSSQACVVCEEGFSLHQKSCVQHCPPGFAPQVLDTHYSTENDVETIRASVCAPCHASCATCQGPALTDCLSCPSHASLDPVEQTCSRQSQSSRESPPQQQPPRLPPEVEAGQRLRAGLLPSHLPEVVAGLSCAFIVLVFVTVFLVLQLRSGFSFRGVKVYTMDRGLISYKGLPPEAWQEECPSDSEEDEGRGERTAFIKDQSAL
The other results are listed elsewhere or left out. No count for the full screen is at hand.
Decide by furin cleavage Z-score: equal to or exceeding 0.4 means MET, less means NOT MET.

Consider the following illustrative entries.
In [3]: df
Out[3]:
                 query_sequence  group_label
0    CALRAYMNTPAGNASASA [HC930]      NOT MET
1   CAWVCCSMSYAGNASASA [HC1988]          MET
2    CANAVAYYRGAGNASASA [HC867]      NOT MET
3  CARKTRFIIHAGNASASA [FS-2426]      NOT MET

Consider the additional sequence presented here.
Can CARKRRNTIHAGNASASA [FS-2567] be said to have furin cleavage Z-score at or above 0.4?
MET
